Data provenance is patent US20020019394A1.

# testSystem: APC (Homo sapiens, UniProt P04070)
# Sequence (P04070 212-450 limits assumed): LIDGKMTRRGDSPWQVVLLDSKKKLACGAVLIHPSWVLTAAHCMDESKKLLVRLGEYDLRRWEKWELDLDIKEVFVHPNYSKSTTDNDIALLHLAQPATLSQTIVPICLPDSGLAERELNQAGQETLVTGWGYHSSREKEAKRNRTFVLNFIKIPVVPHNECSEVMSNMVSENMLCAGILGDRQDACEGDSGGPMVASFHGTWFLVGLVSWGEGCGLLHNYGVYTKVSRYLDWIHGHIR
# Sequence (P04070 43-197 limits assumed): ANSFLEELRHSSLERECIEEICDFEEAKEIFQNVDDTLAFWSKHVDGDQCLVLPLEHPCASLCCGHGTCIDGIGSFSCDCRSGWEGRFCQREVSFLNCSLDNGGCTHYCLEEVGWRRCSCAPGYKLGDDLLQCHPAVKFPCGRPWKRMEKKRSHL
pIC50: −log10 of the molar value.
propertyName: pIC50

(a) CC(=N)N1CCC(Oc2ccc3c(c2)CCS(=O)(=O)N3Cc2ccc3ccc(C(=N)N)cc3c2)CC1
(b) N=C(N)c1ccc2ccc(CN3c4ccc(OC5CCN(C(=N)N)CC5)cc4C=CS3(=O)=O)cc2c1
Prompt: Which one would you say has the larger pIC50 value: a , or b ? Provide the label of your selected option as the answer.
Response: b

###

# testSystem: prothrombinase complex (Homo sapiens, UniProt P00742)
# Sequence (P00742 235-488 limits assumed): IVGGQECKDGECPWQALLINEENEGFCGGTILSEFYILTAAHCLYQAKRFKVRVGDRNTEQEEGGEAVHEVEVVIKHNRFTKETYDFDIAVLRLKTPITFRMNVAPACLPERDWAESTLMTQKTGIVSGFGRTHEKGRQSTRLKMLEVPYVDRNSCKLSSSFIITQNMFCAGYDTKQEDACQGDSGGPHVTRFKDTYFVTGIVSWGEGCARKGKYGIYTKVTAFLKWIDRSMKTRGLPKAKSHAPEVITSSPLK
# Sequence (P00742 41-179 limits assumed): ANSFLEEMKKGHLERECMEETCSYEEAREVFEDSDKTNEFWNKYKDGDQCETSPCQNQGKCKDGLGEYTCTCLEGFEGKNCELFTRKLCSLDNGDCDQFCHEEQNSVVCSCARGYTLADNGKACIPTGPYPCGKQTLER
# Sequence (P12259 29-737 partner limits assumed): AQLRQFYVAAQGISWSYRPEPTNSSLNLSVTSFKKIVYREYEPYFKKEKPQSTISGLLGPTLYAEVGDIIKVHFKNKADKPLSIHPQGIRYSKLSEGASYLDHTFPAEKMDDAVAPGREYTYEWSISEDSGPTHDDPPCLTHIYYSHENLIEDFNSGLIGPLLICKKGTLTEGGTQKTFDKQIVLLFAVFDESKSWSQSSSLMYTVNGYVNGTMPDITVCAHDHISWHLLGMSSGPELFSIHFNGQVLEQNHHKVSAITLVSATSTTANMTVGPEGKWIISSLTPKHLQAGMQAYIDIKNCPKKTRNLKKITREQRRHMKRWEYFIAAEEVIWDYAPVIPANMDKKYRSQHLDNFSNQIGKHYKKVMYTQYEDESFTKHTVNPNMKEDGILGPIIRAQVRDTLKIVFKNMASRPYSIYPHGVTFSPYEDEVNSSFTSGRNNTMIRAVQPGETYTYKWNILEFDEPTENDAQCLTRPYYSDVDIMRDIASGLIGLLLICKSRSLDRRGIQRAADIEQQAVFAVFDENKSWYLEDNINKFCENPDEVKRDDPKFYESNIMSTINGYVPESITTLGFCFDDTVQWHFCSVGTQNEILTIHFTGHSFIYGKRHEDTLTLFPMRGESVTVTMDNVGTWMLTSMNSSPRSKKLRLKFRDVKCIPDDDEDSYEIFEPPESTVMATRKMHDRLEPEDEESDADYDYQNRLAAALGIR
# Sequence (P12259 1574-2224 partner limits assumed): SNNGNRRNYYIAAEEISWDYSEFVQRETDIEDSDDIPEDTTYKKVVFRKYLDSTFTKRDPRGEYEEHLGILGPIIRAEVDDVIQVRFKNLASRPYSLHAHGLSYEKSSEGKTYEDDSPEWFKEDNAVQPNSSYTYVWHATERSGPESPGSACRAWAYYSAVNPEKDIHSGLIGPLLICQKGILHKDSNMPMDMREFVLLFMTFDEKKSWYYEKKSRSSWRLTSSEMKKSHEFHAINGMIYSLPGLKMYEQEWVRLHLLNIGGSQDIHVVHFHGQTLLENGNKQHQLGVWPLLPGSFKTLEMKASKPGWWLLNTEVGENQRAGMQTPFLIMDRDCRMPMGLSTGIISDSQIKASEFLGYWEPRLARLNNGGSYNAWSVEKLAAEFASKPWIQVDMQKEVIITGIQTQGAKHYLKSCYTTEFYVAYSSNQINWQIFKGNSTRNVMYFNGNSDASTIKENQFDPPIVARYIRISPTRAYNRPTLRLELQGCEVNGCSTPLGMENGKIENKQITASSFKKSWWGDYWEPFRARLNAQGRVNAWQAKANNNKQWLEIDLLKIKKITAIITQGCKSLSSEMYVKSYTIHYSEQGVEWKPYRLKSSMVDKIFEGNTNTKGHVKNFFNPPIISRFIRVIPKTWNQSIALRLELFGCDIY
# assayDetails: Prothrombinase inhibition assay, plasma free system
# Format: biochemical
# details: Table 5; read-out: IC50 (nM) Prothrombinase
propertyName: IC50 (nM)
Give just the numeric value; nM need not be written.

Prompt: I would be grateful if you could share the reported IC50 for CS(=O)(=O)N(Cc1ccc2ccc(C(=N)N)cc2c1)c1ccc(C(=O)N2CCC[C@H]2C(N)=O)cc1 [Compound 25] .
Response: 95000

###

# testSystem: prothrombinase complex (Homo sapiens, UniProt P00742)
# assayDetails: Prothrombinase inhibition assay, plasma free system
# Format: biochemical
# details: Table 4; read-out: IC50 (nM) Prothrombinase
Reported IC50 values follow for various compounds
# value in nM; strip the unit string

Prompt: Which IC50 value belongs to CC(=N)N1CCC(Oc2ccc(N(Cc3ccc4ccc(C(=N)N)cc4c3)S(C)(=O)=O)cc2)CC1 ?
Response: 7

***
Prompt: For the compound CC(=N)N1CCC(Oc2ccc(N(Cc3cc4cc(C(=N)N)ccc4n3C)S(C)(=O)=O)cc2)CC1 , what IC50 is on record?
Response: 66.5

###

# testSystem: prothrombinase complex (Homo sapiens)
# assayDetails: Prothrombinase inhibition assay, plasma free system
# Format: biochemical
# details: read-out: IIASE
propertyName: IC50 (nM)

Here's what some known entries look like.
Prompt: Dear colleague, I am looking for the recorded IC50 of the following compound: N=C(N)c1ccc2ccc(CN3c4ccc(OC5CCNCC5)cc4C=CS3(=O)=O)cc2c1 [Example 1]
Response: 15800

Prompt: Look up IC50 for this compound: CC(=N)N1CCC(Oc2ccc3c(c2)C=CS(=O)(=O)N3Cc2ccc3ccc(C(=N)N)cc3c2)CC1 [Example 2]
Response: 64.6

Prompt: For the compound CC(=N)N1CCC(Oc2ccc3c(c2)CCS(=O)(=O)N3Cc2ccc3ccc(C(=N)N)cc3c2)CC1 [Example 6] , what IC50 is on record?
Response: 12.2

(I) N=C(N)c1ccc2ccc(CN3c4ccc(OC5CCN(C(=N)N)CC5)cc4CCS3(=O)=O)cc2c1 [Example 7]
(II) N=C(N)c1ccc2ccc(CN3c4ccc(OC5CCNCC5)cc4CCS3(=O)=O)cc2c1 [Example 4]
Prompt: Which has the higher IC50, I or II ? Lab note: record the label of whichever item you select.
Response: II
(II: 2000 nM, I: 33.2 nM)

(a) N=C(N)c1ccc2ccc(CN3c4ccc(OC5CCN(C(=N)N)CC5)cc4C=CS3(=O)=O)cc2c1 [Example 3]
(b) NC(=O)c1ccc2ccc(CN3c4ccc(OC5CCNCC5)cc4CCS3(=O)=O)cc2c1 [Example 5]
Prompt: Lowest IC50? choose a or b State the label of the item chosen.
Response: a

###

# testSystem: prothrombinase complex (Homo sapiens, UniProt P00742)
# assayDetails: Prothrombinase inhibition assay, plasma free system
# Type: biochemical
# details: Table 6; read-out: IC50 (nM) Prothrombinase
propertyName: IC50 (nM)

Prompt: # get_value(readout='IC50', item= CC(=N)N1CCC(Oc2ccc(N(Cc3cccc(-c4cccc(C(=N)N)c4)c3)S(=O)(=O)CC(=O)O)cc2)CC1 )
Response: 6.6

Prompt: For the compound CCOC(=O)CS(=O)(=O)N(Cc1cc2cc(C(=N)N)ccc2s1)c1ccc(OC2CCN(C(C)=N)CC2)cc1 , what IC50 is on record?
Response: 8.4

Prompt: Need IC50 of CC(=N)N1CCC(Oc2ccc(N(Cc3cc4cc(C(=N)N)ccc4s3)S(=O)(=O)CC(=O)O)cc2)CC1 , thanks.
Response: 7.6
